Data origin: patent US20130089559A1

Would you kindly list 50% neutralising activity, dendritic cells (lowest of six donors) for each of these binders?
# ASSAY_TARGET: gB of hCMV isolate TB40E, on virions (human cytomegalovirus isolate TB40E)
# EXPERIMENT_SUMMARY: cell-based or functional assay
Write the number in µg/mL without appending the unit.

Data request, read-out 50% neutralising activity, dendritic cells (lowest of six donors), for Ab-11 (antibody, V domains shown, also called Antibody Ab-11; SM1-6 VH with SM1-6 VL) VH: QVQLMQSGAEVKKPGASVKVSCKASGYTFTGYYMNWVRQAPGQGLEWMGCINPNSGGTNYAQKFQGRVTMTRDTSISTAYMELTRLRSDDTAVYYCARDGAKTVTTSGMSLLYYYDVMDIWGQGTMVTVSS VL: QSVLTQPPSVSAAPGQKVTISCSGSSSNIGKNYVSWYQQLPGTAPKLLIYDNNKRPSGIPDRFSGSKSGTSATLGITGLQTGDEADYFCGTWDSSLSVVFGGGTKVTVL
0.2

Data request, read-out 50% neutralising activity, dendritic cells (lowest of six donors), for Ab-04 (antibody, V domains shown) VH: QVHLVQSGAEVRKPGASVKVSCKASGYTFTDYYLNWVRQAPGQGLEWMGSINPNTGGTKYAQKFQGRVTMTRDTSIRAAYMELSSLRSDDTAVYYCARDGAKTMTTSGLSLLYYYDVMDVWGQGTLVTVSS VL: QSVLTQPPSVSAAPGQKVTISCSGSSSNIGKNYVSWYQQLPGTAPKLLIDDNNKRPSGIPDRFSGSKSGTSATLGITGLQTGDEADYYCATWDSSLGVVFGGGTKVTVL
0.3

Data request, read-out 50% neutralising activity, dendritic cells (lowest of six donors), for Ab-02 (antibody, V domains shown) VH: QVQLVQPGAEVKKPGASVKVSCKASGFTLSDHYLVWVRQAPGQGFEWMGWINPQSGGTGYAQKFQGRVTMTRDSSSNTAFMDLSKLTSDDTAVYFCARDGAKTVSNSGLGLLYYHSRLDAWGQGTLVTVSS VL: QSVLTQPPSVSAAPGQRVTISCSGSRSNIGKNYVSWYQQPPGTAPKLLIFDNNKRPSGIPDRFSGSKSGTSATLAISGLQAADEADYYCGTWDSSLSVVFGGGTKVTVL
0.2

Data request, read-out 50% neutralising activity, dendritic cells (lowest of six donors), for Ab-14 (antibody, V domains shown, also called Antibody Ab-14; SM3-1 VH with SM3-1 VL) VH: QVQLVQSEAEVEKPGASVKVSCKASGYTFTDYYMNWVRQAPGQGLEWMGCINPHSGGTNYAQKFQGRVTMTRDTSISTAYMELSRLKSDDTAVYYCARDGAKTVTTFGASLLYYYDIMDVWGQGTLVTVSS VL: QSVLTQPPSVSAAPGQKVTISCSGSSSNIGKNYVSWYQHFPGTAPKLLIYDNNKRPSGIPDRFSGSKSGTSATLGITGLQTGDEADYYCATWDRSLSVVFGGGTKVTVL
0.2
